# assayedTarget: Kallikrein-5 (Homo sapiens) (UniProt Q9Y337)
# Sequence (Q9Y337 whole entry): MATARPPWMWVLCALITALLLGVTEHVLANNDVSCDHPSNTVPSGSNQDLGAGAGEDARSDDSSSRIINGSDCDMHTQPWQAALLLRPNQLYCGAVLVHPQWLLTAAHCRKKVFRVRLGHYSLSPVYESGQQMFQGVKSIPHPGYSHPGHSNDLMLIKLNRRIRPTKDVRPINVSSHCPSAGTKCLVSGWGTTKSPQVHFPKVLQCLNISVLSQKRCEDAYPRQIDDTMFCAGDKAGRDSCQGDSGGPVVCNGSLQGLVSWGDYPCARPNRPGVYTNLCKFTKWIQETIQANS
# experimentalDetails: Inhibition of KLK5 (unknown origin) expressed in Pichia pastoris X33 at 50 nM using Ac-YRSR-pNA by spectrophotometry method
Active and inactive are the calls of the source. The rule behind the calls is not given here. Bridge positions count the residues as written; N and C are the ends. Peptide text beside a SMILES is read from it.
Result category, one only: yes for active, no for inactive

Exercise: Hi, do you know how CC[C@H](C)[C@@H]1NC(=O)[C@@H]2CCCN2C(=O)[C@@H]2CCCN2C(=O)[C@H](CCC(N)=O)NC(=O)[C@H](CO)NC(=O)[C@H](CCCNC(=N)N)NC(=O)[C@H]([C@@H](C)O)NC(=O)[C@@H]2CSSC[C@H](NC1=O)C(=O)N[C@@H](CC(N)=O)C(=O)N1CCC[C@H]1C(=O)N[C@@H](CC(N)=O)C(=O)NCC(=O)N[C@@H]([C@@H](C)O)C(=O)N2 (cyclo(CNPNGTCTRSQPPI); disulfide 1-7) came out in this test?
Solution: no

Exercise: Hi team, can someone confirm the assay call for CC[C@H](C)[C@@H]1NC(=O)[C@@H]2CCCN2C(=O)[C@@H]2CCCN2C(=O)[C@H](Cc2ccccc2)NC(=O)[C@H](CO)NC(=O)[C@H](CCCNC(=N)N)NC(=O)[C@H]([C@@H](C)O)NC(=O)[C@@H]2CSSC[C@H](NC1=O)C(=O)N[C@@H](CC(N)=O)C(=O)N1CCC[C@H]1C(=O)N[C@@H](CC(N)=O)C(=O)NCC(=O)N[C@@H]([C@@H](C)O)C(=O)N2 (cyclo(CNPNGTCTRSFPPI); disulfide 1-7) ?
Solution: yes

Exercise: Call for entry CC[C@H](C)[C@@H]1NC(=O)[C@@H]2CCCN2C(=O)[C@@H]2CCCN2C(=O)[C@H](Cc2cnc[nH]2)NC(=O)[C@H](CO)NC(=O)[C@H](CCCNC(=N)N)NC(=O)[C@H]([C@@H](C)O)NC(=O)[C@@H]2CSSC[C@H](NC1=O)C(=O)N[C@@H](CC(N)=O)C(=O)N1CCC[C@H]1C(=O)N[C@@H](CC(N)=O)C(=O)NCC(=O)N[C@@H]([C@@H](C)O)C(=O)N2 (cyclo(CNPNGTCTRSHPPI); disulfide 1-7) :
Solution: no

Exercise: Short answer needed: outcome of this test for CC[C@H](C)[C@@H]1NC(=O)[C@@H]2CCCN2C(=O)[C@@H]2CCCN2C(=O)[C@H](Cc2ccc(O)cc2)NC(=O)[C@H](CO)NC(=O)[C@H](CCCNC(=N)N)NC(=O)[C@H]([C@@H](C)O)NC(=O)[C@@H]2CSSC[C@H](NC1=O)C(=O)N[C@@H](CC(N)=O)C(=O)N1CCC[C@H]1C(=O)N[C@@H](CC(N)=O)C(=O)NCC(=O)N[C@@H]([C@@H](C)O)C(=O)N2 (cyclo(CNPNGTCTRSYPPI); disulfide 1-7) ?
Solution: yes
